Reference source for all entries: paper PMC10545747

# Run description: Cell viability (CCK-8), cytotoxicity
# Assay setup: human, THP1 cells, Cell viability (Fig. S7a), XQ2 5000 nM
# Method: Cell viability was measured by cell counting kit-8 (TargetMol) according to the manufacturer’s instructions. Supplementary Fig. 2. […] (e-g) THP1 cells (e), L929 cells (f) and RAW264.7 cells (g) were exposed to the indicated doses of XQ2 for 48h, the cell viability was measured by CCK8 assay. Data are representative of three independent experiments in (a-g). […] Supplementary Fig. 7. […] The cell viability was measured by CCK8 assay. […]
Square brackets hold non-standard residues; d marks the D form. Peptide text beside a SMILES is read from it.
Readout type: viability at 48 h, 5 µM (%)
All answers are understood in %, so give the number only.

Inquiry: Param item = CC(C)C[C@@H]1NC(=O)[C@H](CCCNC(=N)N)NC(=O)[C@H](C(C)C)NC(=O)[C@@H]2CCCN2C(=O)[C@@H](Cc2ccccc2)NC(=O)[C@H](CC(C)C)NC(=O)[C@H](CCCNC(=N)N)NC(=O)[C@H](C(C)C)NC(=O)[C@H](C)NC(=O)[C@@H](Cc2ccccc2)NC1=O [XQ2, Cyclo (LfAVRLfPVR)] (cyclo(L[dF]AVRL[dF]PVR)) ; retrieve measured viability at 48 h, 5 µM.
Reply text: 90.4
